Test: Antiinflammatory activity in human neutrophils assessed as inhibition of FMLP/CB-induced elastase release using MeO-Suc-Ala-Ala-Pro-Val-p-nitroanilide as substrate incubated for 5 mins by spectrophotometric analysis
Type: functional, cell-based
Conditions: Neutrophil
readout.type: pIC50
Give bare numbers, as −log10 of the molar value.

Required: pIC50, one value per compound below.
1. CNC(=O)c1cc(Oc2ccc(NC(=O)Nc3ccc(Cl)c(C(F)(F)F)c3)cc2)ccn1
2. C=CCc1ccc(O)c(-c2ccc(OC)c(CC=C)c2)c1
3. C=CCc1ccc(O)c(-c2ccc(O)c(OC)c2)c1
4. C=CCc1ccc(O)c(-c2cc(CC=C)cc([C@H]3C[C@](C)(O)CC[C@@H]3C(C)C)c2O)c1
5. C=CCc1ccc(O)c(-c2cc(CC=C)cc([C@@H]3C=C(C)CC[C@H]3C(C)C)c2O)c1
6. C=CCc1ccc(O)c(-c2ccc(O[C@@H]3CCc4cc(CC=C)cc(-c5cc(CC=C)ccc5O)c4O3)cc2O)c1
7. C=CCc1ccc(Oc2cc(CC=C)cc(O)c2O)cc1
8. C=CCc1ccc(O)c(-c2cc(CC=C)cc(C=O)c2O)c1

5.70
5.09
4.74
5.45
4.83
5.42
5.48
6.20

Required: pIC50, one value per compound below.
1. C=CCc1ccc(O)c(-c2cc(CC=C)cc(OC)c2O)c1
2. C=CCc1ccc(O)c(-c2cc(CC=C)cc3c2O[C@@H]2[C@H]3[C@@H](C(C)C)CC[C@@]2(C)O)c1
3. C=CCc1ccc(O)c(-c2cc(CC=C)cc([C@@H]3[C@@H](C(C)C)CC[C@@](C)(O)[C@@H]3O)c2O)c1
4. C=CCc1ccc(Oc2cc(CC=C)c3c(c2O)O[C@@]2(C)CC[C@@H](C(C)C)[C@@H]3C2)cc1
5. C=CCc1ccc(O)c(-c2cc(O[C@H]3CCc4cc(CC=C)cc(-c5cc(CC=C)ccc5O)c4O3)ccc2O)c1
6. C=CCc1ccc(O)c(-c2cc(CC=C)cc([C@H]3C[C@@](C)(O)CC[C@@H]3C(C)C)c2O)c1

1: 5.47; 2: 5.59; 3: 4.97; 4: 5.44; 5: 5.65; 6: 5.67
